# MEASUREMENT_TARGET: T1, orthogonal hCD122 receptor (hoRb), hCD122 with H133D and Y134F (human, UniProt P14784 27-550); further: reference of the scale not given here
# T1 sequence: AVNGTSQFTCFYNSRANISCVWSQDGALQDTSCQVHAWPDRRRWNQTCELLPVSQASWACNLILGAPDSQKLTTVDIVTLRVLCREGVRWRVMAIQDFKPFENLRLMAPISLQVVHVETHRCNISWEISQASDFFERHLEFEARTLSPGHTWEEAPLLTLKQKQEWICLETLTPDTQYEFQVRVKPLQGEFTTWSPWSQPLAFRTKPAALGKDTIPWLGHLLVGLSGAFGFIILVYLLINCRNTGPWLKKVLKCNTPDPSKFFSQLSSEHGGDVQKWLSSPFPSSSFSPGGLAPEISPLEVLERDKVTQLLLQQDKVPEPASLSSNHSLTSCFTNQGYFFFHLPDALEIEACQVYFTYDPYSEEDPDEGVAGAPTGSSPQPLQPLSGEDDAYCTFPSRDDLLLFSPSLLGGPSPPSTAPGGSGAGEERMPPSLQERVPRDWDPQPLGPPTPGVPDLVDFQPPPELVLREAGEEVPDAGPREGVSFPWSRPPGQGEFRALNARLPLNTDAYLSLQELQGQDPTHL
# PROCEDURE_SUMMARY: cell-based or functional assay
Listing of entries alongside the reported Relative Proliferation Fold Change NKL 1:10.
Give the quantity in fold, number only.

- BINDER: "Q126D, SQVLKA (ligand) APTSSSTKKTQLQLSQLLVLLKAILNGINNYKNPKLTRMLTFKFYMPKKATELKHLQCLEEELKPLEEVLNLAQSKNFHLRPRDLISNINVIVLELKGSETTFMCEYADETATIVEFLNRWITFCDSIISTLT"
  TEST_VALUE: 0.49

Next up:
Tell me its Relative Proliferation Fold Change NKL 1:10 given T3R, SQVLKA (ligand) APRSSSTKKTQLQLSQLLVLLKAILNGINNYKNPKLTRMLTFKFYMPKKATELKHLQCLEEELKPLEEVLNLAQSKNFHLRPRDLISNINVIVLELKGSETTFMCEYADETATIVEFLNRWITFCQSIISTLT as the entry.
2.9

Source: patent US20210196796A1
